Test: compound binding in COS7 lysate, probe aLAP1, primary screen, cell lysate, small-molecule microarray (AID 1124);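 also: lysate comes from COS7 cells expressing LAP1 and is applied at 0.3 µg/mL; score merges spot fluorescence near 667 nm with signal-to-noise over triplicate slides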
Settings: probe aLAP1, fluorescence, higher = more signal
Binary classification by composite z-score, with 0.06 as an inclusive lower bound for true (1); all other cases are false (0).

Input line: Is composite z-score for "Cc1ccc(F)cc1S(=O)(=O)N[C@@H]1CCN(Cc2ccc(-c3ccccc3)cc2)C1" at or above 0.06?
Output line: true (1)

Please look at the following molecule next.
Input line: Is composite z-score for "C=CCNC(=O)[C@@H]1[C@H]2C(=O)O[C@H](c3ccccc3)[C@H](c3ccccc3)N2[C@H](c2ccc(OCCO)cc2)[C@@]12C(=O)Nc1ccccc12" at or above 0.06?
Output line: true (1)

###

Test: S. cerevisiae growth modulation with rapamycin, primary screen, strain BY4716, OD600, 96 h (AID 1091); also: test concentration not given here
Settings: higher = more signal, called active from +8 up or from −8 down
Binary classification by z-score, with 0.1 as an inclusive lower bound for true (1); all other cases are false (0).

Recorded results for 2 molecules are shown here.
Input line: Is z-score for O=C1OCCC=C[C@H]2OC34C=CCN(Cc5ccccc5)C(=O)[C@H]3N(CCCCCCO)C(=O)[C@@H]4C12 (stereo not given in full) at or above 0.1?
Output line: false (0)

Input line: Is z-score for "C=CCOC(=O)[C@H]1[C@@H]2C(=O)O[C@@H](c3ccccc3)[C@@H](c3ccccc3)N2[C@@H](c2ccc(OCCOC(=O)[C@@H]3C[C@@H]4C(=O)N5CCC[C@H]5C(=O)N4[C@@H]3c3ccc(O)cc3)cc2)[C@]12C(=O)Nc1ccccc12" at or above 0.1?
Output line: true (1)

Further cases:
Input line: Is z-score for "COCCOC(=O)N1C(=O)[C@@]2(c3cc(C#CCNC(N)=O)ccc31)[C@H](C(=O)N1CCN(c3ncccn3)CC1)[C@H]1C(=O)O[C@H](c3ccccc3)[C@H](c3ccccc3)N1[C@@H]2c1ccccc1OCCO" at or above 0.1?
Output line: true (1)

Input line: Is z-score for "COC(=O)[C@@]1(Cc2ccccc2)[C@H]2c3cc(C(=O)N(C)C)n(Cc4cc(C)n(C)n4)c3C[C@H]2CN1C(=O)c1ccccc1" at or above 0.1?
Output line: false (0)

###

Assay: HepG2 liver cancer cell viability effects, profiling panel, resazurin fluorescence, 24 h, PK04 Diversity Set (AID 1172); also: test concentration not given here
Details: higher = more signal
Give measured z-score for each item. Keep answers brief.
Numbers only.

Below are worked cases with known answers.
Input line: # lookup: z-score of "COCCCNC(=O)[C@@]1(c2ccc([N+](=O)[O-])cc2)CC(=O)N(CC23CC4CC(CC(C4)C2)C3)[C@@H]1c1ccc(CO)cc1"
Output line: -1.04

Input line: # lookup: z-score of "C[C@]1(C(=O)NCc2ccccc2)c2ccccc2C(=O)N(Cc2cc(F)cc(C(F)(F)F)c2)[C@H]1c1ccc(CO)cc1"
Output line: -0.555

Input line: # lookup: z-score of "C=C[C@H](C)[C@@H](O)c1ccc(O)c2ccccc12"
Output line: 0.146

// each listed compound needs a value for z-score
1. COCCOC(=O)N1C(=O)[C@@]2(c3cc(C#CCNC(N)=O)ccc31)[C@H](C(=O)N1CCc3cc(OC)c(OC)cc3C1)[C@H]1C(=O)O[C@H](c3ccccc3)[C@H](c3ccccc3)N1[C@@H]2c1ccc(OCCO)cc1
2. CN1C=C(C(=O)OCCS(C)(=O)=O)C(C(=O)OCCS(C)(=O)=O)=CC(CCCO)=CC1C1CC1 (stereo not given)
3. CCCCC(CC)C(O)C1C=CC2C(=O)N(c3ccccc3)C(=O)C2N1Nc1ccccc1 (stereo not given)

Output line:
1. 0.631
2. 0.427
3. -1.3

// each listed compound needs a value for z-score
1. Cc1cc(C)c(C(O)C2C=CC3C(=O)N(c4ccccc4)C(=O)C3N2Nc2ccc(C#N)cc2)c(C)c1 (stereo not given)
2. C=CC[C@@]1(C(=O)NCC(O)CO)N=C(c2ccc(OCCCO)cc2)O[C@@H]1c1ccccc1N=[N+]=[N-] (stereo not given in full)
3. CCCNC(=O)[C@@H]1c2ccccc2C(=O)N(Cc2ccccc2)[C@H]1c1ccc(CO)cc1
4. CCCC[C@@H]1C[C@H]1[C@@H](NC(=O)c1ccc(-c2ccccc2)cc1)c1ccc(-c2ccccc2)cc1

Output line:
-0.833
0.896
-0.898
0.543

Data origin: PubChem BioAssay
